system: hiPSC-derived neurons co-cultured with human primary astrocytes in 3D; assay: Ca2+ transient oscillation assay (FDSS), 3D spheroids; format: cell-based; conditions: 0.37 µM; 60 min
Provide the recorded Peak amplitude - 3D Mean for the entries that follow.
Give just the numeric value; % change from baseline need not be written.

Q: # return recorded Peak amplitude - 3D Mean for entry CC(NC(C)(C)C)C(=O)c1cccc(Cl)c1 (stereo not shown)
A: 126.7

Q: # return recorded Peak amplitude - 3D Mean for entry CCN(CC)CCCC(C)Nc1c2ccc(Cl)cc2nc2ccc(OC)cc12 (stereo not shown)
A: 113.4

Q: # return recorded Peak amplitude - 3D Mean for entry `CC[C@@H]1C(=O)OC[C@@H]1Cc1cncn1C`
A: 115.6

Q: # return recorded Peak amplitude - 3D Mean for entry `Cc1ccc(Nc2nccc(N(C)c3ccc4c(C)n(C)nc4c3)n2)cc1S(N)(=O)=O`
A: 101.6
